test system: SK-MEL-28; assay: NCI tumour cell line growth inhibition, 48 h
Active and inactive are the calls of the source. No stated cut-off is given here; in the data, active = GI50 up to about 1.1 µM and inactive = higher.
Provide the recorded GI50 for the entries that follow.

I have this compound here, C=C1C(=O)OC2CC1C(O)C/C(C)=C/CC/C(C)=C/C(O)CC2C (stereo unspecified) , and I need its recorded GI50. 4.9 µM (inactive)

Would you mind doing `O=C1C=CC(=O)c2c1ccc1c3ccccc3n(CCCCCn3c4ccccc4c4ccc5c(c43)C(=O)C=CC5=O)c21` as well? 16.4 µM (inactive)

Here is the next compound: `CC(=O)Oc1c(-c2ccccc2)oc2ccccc12` 2.38 µM (inactive)

Okay, and CN1N=C(c2ccncc2)OC1c1cccc(C(F)(F)F)c1 (stereo unspecified) ? > 100 µM (inactive)

Repeat for the following compound: N#CC1=C2SCCN2C(=O)C(C#N)C12CCCCC2 (stereo unspecified) > 100 µM (inactive)

Request: `CCSC1=N/C(=C\c2ccccc2O)C(Nc2ccc(C)cc2)=N1` 51.1 µM (inactive)

`CC(=O)Oc1cc(Cl)c(OC(C)=O)c2c(OC(C)=O)c(C)c(O[Si](C)(C)C(C)(C)C)cc12` ? 3.05 µM (inactive)

Try this compound too: `O=C1OC(c2ccccc2)=N/C1=C\c1ccc(N(CCCl)CCCl)cc1` > 100 µM (inactive)

Next record, please: OC12CCC3(O)c4ccccc4C3C1c1ccccc12 (stereo unspecified) > 100 µM (inactive)

Okay, and `CN(C)CCNc1nc2c(no[n+]2[O-])c2ccccc12.[O-][Cl+3]([O-])([O-])O` ? 18.5 µM (inactive)

Same question, CCc1cccc(CC)c1NC(=O)C1=CNC(C)=C(C(=O)Nc2c(CC)cccc2CC)C1c1ccc(O)c(OC)c1 (stereo unspecified) this time 33.3 µM (inactive)

Please do the same for `O=C(O)Cn1cc([N+](=O)[O-])c(=O)c2ccccc21` as well. > 100 µM (inactive)

// query: CC1=C(C(=O)c2ccccc2)C23C(=O)N(c4ccccc4)C(=O)C2=C(O)C=CC3(O)N1 (stereo unspecified) 17.3 µM (inactive)

Another: `C#CCOCn1cnc2c(Sc3c([N+](=O)[O-])ncn3C)ncnc21` > 100 µM (inactive)

Further, for `CCSc1c(C)c2c(n(Cc3ccc(OC)cc3)c1=O)Cc1ccccc1C2` ? 92.7 µM (inactive)

Request: `Cc1ncc(CO)c(/C=N/CCCCCC/N=C/c2c(CO)cnc(C)c2[O-])c1[O-].[Mg+2]` > 100 µM (inactive)

Now the compound `COc1cc(Oc2nc3cc(F)c(F)cc3nc2-c2ccccc2)cc(OC)c1OC` > 100 µM (inactive)

`COC(=O)NC(C(F)(F)F)(C(F)(F)F)P1(=O)OCCCO1` , same question. 35.6 µM (inactive)

Item: CC1(CCCC2(C)CCNC2=O)OCCO1 (stereo unspecified) > 10 µM (inactive)

What about this compound? COC(=O)C1CC(C=[N+](C)C)=C(SC)N1 (stereo unspecified) > 100 µM (inactive)

// repeat for Cc1ccc(C2(O)CC(c3ccc([N+](=O)[O-])o3)=NN2C(=O)COc2ccccc2Cl)cc1 (stereo unspecified) and report 15.2 µM (inactive)

----------
What GI50 was measured for each of the following?
system: OVCAR-8; assay: NCI tumour cell line growth inhibition, 48 h
Calls of active or inactive are those of the source. No stated cut-off is given here; in the data, active = GI50 up to about 1.1 µM and inactive = higher.

Request the reported GI50 associated with `CC[C@]1(O)C[C@H]2CN(CCc3c([nH]c4ccccc34)[C@@](C(=O)OC)(c3cc4c(cc3OC)N(C)[C@H]3[C@@](O)(C(=O)OC)[C@H](OC(C)=O)[C@]5(CC)C=CCN6CC[C@]43[C@@H]65)C2)C1` 0.00129 µM (active)

Now this one: CC(C(=O)c1ccc(O)cc1)C1(O)C(=O)Nc2c(Cl)cc(Cl)cc21 (configuration not stated) 46.3 µM (inactive)

Follow-up entry: `CN1CC(c2ccccc2)=CC2=C1C=CC(=N)/C2=N\N` > 100 µM (inactive)

Same question for `COc1cc(CNc2cnc3cc(N)ccc3n2)cc(OC)c1OC` please. 37.4 µM (inactive)

Thanks! And `[O-][n+]1cn[n+]([O-])c2ccccc21` ? 18.9 µM (inactive)

What do we get for FC(F)(F)C12C34C=CC5(CCC6(C=CC1(CC3)O6)C52C(F)(F)F)O4 (configuration not stated) ? > 100 µM (inactive)

Again, but for `COc1cccc(/C=C2\C(=O)N(C(=O)c3ccc(NC(C)=O)cc3)N=C2C)c1` > 100 µM (inactive)

Same thing, different compound: `COc1ccccc1/C=C1\Sc2scc(-c3ccc(O)c(O)c3)[n+]2C1=O` 39.9 µM (inactive)

Follow-up entry: `COc1cc(Oc2nc3cc(F)c(F)cc3nc2-c2ccccc2)cc(OC)c1OC` > 100 µM (inactive)

Follow-up entry: `COc1ccc(Nc2cc(O)nc(O)n2)cc1` > 100 µM (inactive)

What would you report for `CC1=C(/C=C/C(C)=C/C=C/C(C)=C/C(=O)O)C(C)(C)CCC1` ? > 65.3 µM (inactive)

Request: `CC(=O)O[C@@H]1[C@@H](O)C2=C3[C@]4(C)[C@@H]1C(C)(C)C(=O)C[C@@H]4[C@]3(O)[C@H](OC(C)=O)[C@@]1(C[C@@H]1C)C2=O` 18.5 µM (inactive)

Moving on to the next compound: `Cc1c2ccccc2c(CSC(=N)N)c2ccccc12` 0.199 µM (active)

Cool, now `CN(C)c1ccc(/C=C2\N=C(N/N=C/c3ccc(N(C)C)cc3)NC2=O)cc1` 24.8 µM (inactive)

Try CCCOC1OC(CS(=O)(=O)O)C(OC(C)=O)C(OC(C)=O)C1OC(C)=O (configuration not stated) next. > 100 µM (inactive)

Continue with `COC(=O)C(=C\Sc1ccccc1)/C=C/C(=O)OC(C)(C)C` 15.3 µM (inactive)

How about N#CCN(CC#N)C1CC=CCC1N(CC#N)CC#N (configuration not stated) ? > 100 µM (inactive)

# repeat for CC1(CCCC2(C)CCNC2=O)OCCO1 (configuration not stated) > 10 µM (inactive)

Moving on to CN1N=C(c2ccncc2)OC1c1cccc(C(F)(F)F)c1 (configuration not stated) > 100 µM (inactive)

For `CCN(CC)Cc1nc2sc3c(c2c(=O)n1-c1ccccc1)CCCC3` then? 17.5 µM (inactive)

Then `N#Cc1c(-c2ccc([N+](=O)[O-])cc2)c2c([nH]c1=O)-c1ccccc1CCC2` ? 55.3 µM (inactive)

Cool, now COc1cccc(OC)c1C1ON=C(c2ccccc2)N1C12CC3CC(CC(C3)C1)C2 (configuration not stated) > 100 µM (inactive)

----------
tested on: NCI/ADR-RES; assay: NCI tumour cell line growth inhibition, 48 h
The source made the active and inactive calls. Rule as the data show it: active = GI50 up to about 1.1 µM and inactive = higher.
parameter: GI50

Param item = `CCCCc1ccc(Nc2cc(=O)n(C)c(=O)[nH]2)cc1` ; retrieve measured GI50. 57.4 µM (inactive)

Same question for `CCCCCCCCCCCCOc1ccc(/C=C/C2=[N+](CCCl)CCO2)cc1` please. 46.1 µM (inactive)

Follow-up item: `S=c1sscc1N1CCSc2ssc(=S)c21` 28.4 µM (inactive)

What do we get for `CCCCNC(=O)Cn1c2ccc(Br)cc2c2nc3ccccc3nc21` ? 42.2 µM (inactive)

Another compound to check: `O=c1[nH]cnc2cccc(Cl)c12` > 100 µM (inactive)

Next: `O=C1Nc2ccccc2S/C1=C\c1ccc(C(F)(F)F)cc1` > 100 µM (inactive)

----------
system: LOX IMVI; assay: NCI tumour cell line growth inhibition, 48 h
The source made the active and inactive calls. Rule as the data show it: active = GI50 up to about 1.1 µM and inactive = higher.
Entry note: the call must match one of Y (active), N (inactive)

Kindly provide the recorded test outcome for the following compound: `Clc1ccc(C(c2ccc(Cl)cc2)c2cncnc2)cc1` N

Queued: `CC(=O)c1ccc2c3c1[C@@H]1O[C@@H]1c1cccc(c1-3)[C@@H]1O[C@H]21` N

Follow-up item: CCC1(C)C=Cc2c(cc(O)c3c(=O)c4ccccc4n(C)c23)O1 (configuration not stated) N

Ok, now CC1NS(=O)(=O)N(C)C1=O (configuration not stated) N

What do we get for COCCNC1CCC2(SCCS2)c2[nH]c3ccccc3c21 (configuration not stated) ? N

Moving on to the next compound: `CC(C)NC(=O)OCc1c2c(n(C)c1COC(=O)NC(C)C)-c1ccccc1CC2` N

Try this compound too: `CC(C)Oc1cccc(N2C(NCc3c[nH]c4ccccc34)=Nc3ccncc3S2(=O)=O)c1` N

What do you have for `Cc1ccsc1/C=N/NC1=NCCN1` ? N

`Cc1c[n+]([O-])c2ccccc2[n+]1[O-]` , same question. N

What about this compound? `O=C1NC(=O)c2ccccc2/C1=C/c1ccc2c(c1)OCO2` N

Please do the same for O=C(CC(C(=O)c1cccs1)c1ccccc1)c1ccccc1O (configuration not stated) as well. N

`O=C(O)C/C(=C\c1ccco1)C(=O)O` ? N

Same lookup for Cc1ccc(S(=O)(=O)C2=C([Si](C)(C)C)C3CC2[C@@H]2C4C=CC(CC4)[C@H]32)cc1 (some centres not stated) , please. N

Please give the result for `Clc1ccc(Cl)c2[s+]snc12` too. N

Now consider O=C1C(=C(C(F)(F)Cl)C(F)(F)Cl)C2CCC1C2 (configuration not stated) and answer again. N

Try this compound too: `O=P(Oc1ccc(Cl)cc1)(Oc1ccc(Cl)cc1)N1CC1` N

What do we get for `CCOC(=O)Cc1nc2cc(F)c(F)cc2[nH]c1=O` ? N

Likewise for COc1cc(/C=C2\CC(C)C/C(=C\c3ccc(O)c(OC)c3)C2=O)ccc1O (configuration not stated) ? N

`CN(C)CCN1C(=O)CC[C@@]2(C)C1=CC[C@@H]1[C@@H]2CC[C@@]2(C)[C@H]1CC[C@]2(C)O` ? N

Same question for `Cc1c2cc[n+](C)cc2c(C)c2c1[nH]c1ccccc12` please. N

Entry to check: CC(=O)Nc1ccc2[nH]c(C(=O)N3CC(CCl)c4c3cc(N)c3ccccc43)cc2c1 (configuration not stated) Y

Now the same for C/C(=N\O)C(CN(C)C)C(c1ccccc1)c1c(O)c2ccccc2oc1=O (configuration not stated) N
